Provide the reported IC50 of each item.
- target_system: human recombinant Monoacylglycerol Lipase (Homo sapiens, UniProt Q99685)
- Sequence (Q99685 whole entry): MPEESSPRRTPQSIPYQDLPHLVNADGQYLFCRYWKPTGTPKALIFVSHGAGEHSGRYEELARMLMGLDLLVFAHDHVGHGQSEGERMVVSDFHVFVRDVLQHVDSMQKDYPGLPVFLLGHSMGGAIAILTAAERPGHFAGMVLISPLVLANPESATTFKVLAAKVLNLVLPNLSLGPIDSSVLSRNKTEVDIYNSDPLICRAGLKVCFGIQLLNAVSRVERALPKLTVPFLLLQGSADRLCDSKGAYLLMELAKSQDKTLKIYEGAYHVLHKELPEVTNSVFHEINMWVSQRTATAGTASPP
- protocol_notes: MAGL inhibition enzymatic assay, fluorogenic substrate 7-HCA, IC50 at T=0 min or after 30 minute incubation (T=30 min)
- Type: biochemical
- condition_notes: T = 30 min (30 minute incubation); geometric mean of 2-4 determinations unless otherwise indicated; read-out: MAGL (T = 30 min) IC50
Give bare numbers, in nM.

molecule	measured_result
CC(c1ccc(F)cc1)N1CCOC2(CCN(C(=O)O[C@H](CO)C(F)(F)F)CC2)C1 (single isomer, unassigned) [Example 44]	17

Below are some molecules; for each one, tell me its IC50.
1. CN([C@H]1COC2(CCN(C(=O)O[C@H](CO)C(F)(F)F)CC2)C1)S(=O)(=O)CC(F)(F)F
2. O=C(O[C@H](CO)C(F)(F)F)N1CCC(Oc2ccc(C3CC3)cn2)CC1
3. O=C(O[C@H](CO)C(F)(F)F)N1CCC2(CC1)CCN(S(=O)(=O)c1ccccc1)C2
4. CC(C)CS(=O)(=O)N(C)[C@H]1COC2(CCN(C(=O)O[C@H](CO)C(F)(F)F)CC2)C1
5. Cc1cnc(OC2CCN(C(=O)O[C@H](CO)C(F)(F)F)CC2)nc1-c1ccnn1C
6. O=C(OC(C(F)(F)F)C(F)(F)CO)N1CCC2(CC1)CN(S(=O)(=O)c1ccc(F)cc1)CCO2 (single isomer, unassigned; ent-1) [Example 20]
7. CN(C(=O)CC1CC1)[C@H]1COC2(CCN(C(=O)O[C@H](CO)C(F)(F)F)CC2)C1
8. CC(c1ccc(F)cc1)N1CCOC2(CCN(C(=O)O[C@H](CO)C(F)(F)F)CC2)C1 (single isomer, unassigned) [Example 45]

1: 11; 2: 7; 3: 2; 4: 15; 5: 33; 6: 6; 7: 19; 8: 18

Look up IC50 for the entries below, preserving their order.
1. CCN([C@H]1COC2(CCN(C(=O)O[C@H](CO)C(F)(F)F)CC2)C1)S(=O)(=O)c1ccccc1
2. O=C(O[C@H](CO)C(F)(F)F)N1CCC(c2ccn(-c3ccc(F)cc3)n2)CC1
3. O=C(O[C@H](CO)C(F)(F)F)N1C[C@@H]2CN(c3cc(C4CC4)ccn3)C[C@@H]2C1

1: 1; 2: 8; 3: 926
